# Target Entity: E. coli GMPS (Escherichia coli)
# Sequence (P04079 1-525): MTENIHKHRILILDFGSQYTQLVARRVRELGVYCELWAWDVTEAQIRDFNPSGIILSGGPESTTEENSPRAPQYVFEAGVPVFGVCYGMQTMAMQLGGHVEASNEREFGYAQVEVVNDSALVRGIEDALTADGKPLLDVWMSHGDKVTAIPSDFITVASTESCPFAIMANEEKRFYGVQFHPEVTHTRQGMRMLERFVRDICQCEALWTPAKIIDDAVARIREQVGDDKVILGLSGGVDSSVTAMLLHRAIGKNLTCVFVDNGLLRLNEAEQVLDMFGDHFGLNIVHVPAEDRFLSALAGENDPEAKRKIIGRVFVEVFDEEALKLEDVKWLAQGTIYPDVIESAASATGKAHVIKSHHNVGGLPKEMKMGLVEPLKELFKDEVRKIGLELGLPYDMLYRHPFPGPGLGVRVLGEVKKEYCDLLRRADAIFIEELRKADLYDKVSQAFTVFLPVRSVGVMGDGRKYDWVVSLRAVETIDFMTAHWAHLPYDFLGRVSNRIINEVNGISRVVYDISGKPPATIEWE
Measure: Ki

For the compound NC(=O)c1ncn([C@@H]2O[C@H](CO)[C@@H](O)[C@H]2O)c1O , what Ki is on record? 1.8 µM

In the following, a different compound is considered.
For the compound C=C1O[C@@](CO)(n2cnc3c(N)ncnc32)[C@H](O)[C@@H]1O , what Ki is on record? 54.1 µM
